Reported values of normalized RNA/DNA level with ligand (log10) for individual entries
B1: library; a variant is named by its letters at N, in order (parent)
chain: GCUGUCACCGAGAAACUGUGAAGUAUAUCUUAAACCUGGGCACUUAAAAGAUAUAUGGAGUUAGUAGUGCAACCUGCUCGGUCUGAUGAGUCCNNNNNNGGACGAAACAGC

Variants of: B1
testMethodNotes: normalized RNA/DNA level with ligand (relative to sTRSVctl = 100) (log10 (% of sTRSVctl)); HEK293T; ligand: cyclic di-GMP (c-di-GMP-II aptamer); ligand concentration (+) RNA-Seq: 1 mM; higher = less ribozyme self-cleavage, higher mRNA level
studyConditions: reporter: mCherry (pCS4076), ligand present: yes
Number only, please.

# example entries with known answers
[
  {
    "variantIdentifier": "UUGGCC",
    "measuredValue": 1.88
  },
  {
    "variantIdentifier": "ACCGUG",
    "measuredValue": 1.77
  },
  {
    "variantIdentifier": "CAUCUU",
    "measuredValue": 1.75
  }
]

For the variant AUGAAA , what normalized RNA/DNA level with ligand (log10) is on record?
1.64

Field entry: ACGCUA
1.72
